- system.under.test: UniProt Q15761
- procedure.text: Human NPY5 Receptor Binding Assay
- assay.setup: [125I]PYY; read-out: hNPY5 IC50
pIC50: −log10 of the molar value.
Catalogue of compounds with associated pIC50
observable: pIC50

# compound, reported.relation, readout.number
rows = [
    ("O=C(CSc1ccccn1)Nc1ccc(C2CCCCC2)cc1 [Compound 182, reference compound]", "=", 6.06),
    ("O=C(CSCC(O)CO)Nc1ccc(C(=O)c2ccccc2)cc1 (centres unmarked) [Compound 42]", "=", 5.82),
    ("Cn1ccnc1SCC(=O)Nc1ccc(C(C)(C)C)cc1 [Compound 143, reference compound]", "=", 5.51),
    ("O=C(CSc1nnc(-c2ccccc2)o1)Nc1ccc(C(=O)c2ccccc2)cc1 [Compound 89]", "=", 6.23),
    ("Cc1ccnc(SCC(=O)Nc2ccc(C3CCCCC3)cc2)n1 [Compound 29]", "=", 6.72),
    ("Cc1nc(-c2nnc(SCC(=O)Nc3ccc(Cl)cc3)n2C)cs1 [Compound 138, reference compound]", "<", 5.00),
    ("O=C(CSc1ncnc2c1ncn2[C@@H]1O[C@H](CO)[C@H](O)[C@H]1O)Nc1ccc(C2CCCCC2)cc1 [Compound 23]", "<", 5.00),
    ("O=C(CSc1cccc[n+]1[O-])Nc1ccc(C2CCCCC2)cc1 [Compound 36]", "=", 6.96),
    ("COC(=O)c1cnc(SCC(=O)Nc2ccc(C3CCCCC3)cc2)n1C [Compound 115]", "=", 6.05),
    ("O=C(CSc1nc(-c2ccccc2)c(-c2ccccc2)[nH]1)Nc1ccc(C(=O)c2ccccc2)cc1 [Compound 16]", "=", 5.44),
    ("CCOc1ccc2nc(SCC(=O)Nc3ccc(C(=O)c4ccccc4)cc3)sc2c1 [Compound 60]", "=", 5.68),
    ("O=C(CSc1cccc[n+]1[O-])Nc1ccc(C(=O)c2ccccc2)cc1 [Compound 46]", "=", 6.52),
    ("O=C(CSc1nc2ccccc2[nH]1)Nc1ccc(C(=O)c2ccccc2)cc1 [Compound 12]", "=", 6.32),
    ("Nc1nc(O)c2[nH]c(SCC(=O)Nc3ccc(C(=O)c4ccccc4)cc3)nc2n1 [Compound 14]", "<", 5.00),
    ("O=C(CSc1ncccn1)Nc1ccc(C2CCCCC2)cc1 [Compound 39]", "=", 6.31),
    ("O=C(CSc1nnc(NC2CCCCC2)s1)Nc1ccc(C(=O)c2ccccc2)cc1 [Compound 123]", "=", 6.38),
    ("O=C(CSc1nc(-c2ccccc2)no1)Nc1ccc(C2CCCCC2)cc1 [Compound 90]", "=", 6.59),
]

----------
Examples of compounds with documented IC50 follow.
- system.under.test: Human NPY1 Receptor (Homo sapiens, UniProt P25929)
- Sequence (P25929 whole entry): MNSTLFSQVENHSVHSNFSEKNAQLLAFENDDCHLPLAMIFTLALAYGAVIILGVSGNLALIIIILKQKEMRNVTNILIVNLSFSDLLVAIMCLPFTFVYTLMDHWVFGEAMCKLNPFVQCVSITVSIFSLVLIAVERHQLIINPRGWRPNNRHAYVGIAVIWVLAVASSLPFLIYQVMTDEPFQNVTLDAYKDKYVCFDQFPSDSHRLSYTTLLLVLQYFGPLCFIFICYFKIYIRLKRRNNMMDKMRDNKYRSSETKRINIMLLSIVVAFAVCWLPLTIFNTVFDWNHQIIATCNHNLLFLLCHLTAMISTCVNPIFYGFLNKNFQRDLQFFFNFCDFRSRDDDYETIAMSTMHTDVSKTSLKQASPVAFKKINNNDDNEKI
- procedure.text: Human NPY1 Receptor Binding Assay
- assay.setup: SK-N-MC cells, [125I]PYY; read-out: hNPY1 IC50
observable: IC50

# compound, result
records = [
    ("CCC(C)c1ccc(NC(=O)CSc2nncn2C)cc1 (centres unmarked) [Compound 172, reference compound]", "> 5 µM"),
    ("CCC(C)c1ccc(NC(=O)CSc2nccn2C)cc1 (centres unmarked) [Compound 148, reference compound]", "> 5 µM"),
    ("CC(C)c1ccc(NC(=O)CSc2nccn2C)cc1 [Compound 155, reference compound]", "> 5 µM"),
    ("Cn1nnnc1SCC(=O)Nc1ccc(OC(F)(F)F)cc1 [Compound 144, reference compound]", "> 5 µM"),
    ("Cc1cc(-c2nnc(SCC(=O)Nc3ccccc3)n2C)no1 [Compound 150, reference compound]", "> 5 µM"),
    ("CN1CCN=C1SCC(=O)Nc1ccc(F)cc1 [Compound 146, reference compound]", "> 5 µM"),
    ("COC(Cn1c(SCC(=O)Nc2ccc(Cl)cc2)nnc1-c1ccc(Cl)cc1)OC [Compound 161, reference compound]", "> 5 µM"),
    ("COC(Cn1c(SCC(=O)Nc2ccc(C(C)C)cc2)nnc1-c1ccc(Cl)cc1)OC [Compound 166, reference compound]", "> 5 µM"),
]

----------
- system.under.test: Human NPY5 Receptor (Homo sapiens, UniProt Q15761)
- Sequence (Q15761 1-445): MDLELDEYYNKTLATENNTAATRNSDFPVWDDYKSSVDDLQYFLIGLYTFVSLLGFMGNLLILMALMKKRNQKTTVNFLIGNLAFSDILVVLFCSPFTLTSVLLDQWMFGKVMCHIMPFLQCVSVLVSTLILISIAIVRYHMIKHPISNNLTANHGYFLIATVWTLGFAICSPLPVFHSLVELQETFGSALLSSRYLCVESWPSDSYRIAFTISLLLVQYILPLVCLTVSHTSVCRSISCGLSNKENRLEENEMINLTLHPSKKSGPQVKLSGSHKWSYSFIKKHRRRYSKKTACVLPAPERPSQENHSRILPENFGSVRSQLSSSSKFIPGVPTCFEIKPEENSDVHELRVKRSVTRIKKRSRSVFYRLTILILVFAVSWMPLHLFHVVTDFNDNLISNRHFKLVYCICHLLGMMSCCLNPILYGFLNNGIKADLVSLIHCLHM
- procedure.text: Human NPY5 Receptor Binding Assay
- assay.setup: [125I]PYY; read-out: hNPY5 IC50
Where a name gives a salt, the structure may show the parent alone.
Note to self: use T only for IC50 readings below 600 nM; a reading exactly at 600 nM still gets F.

# compound, label
measured = [
    ("Cc1nnc(SCC(=O)Nc2ccc(C(=O)c3ccccc3)cc2)s1", "T"),
    ("Nc1nnc(SCC(=O)Nc2ccc(C(=O)c3ccccc3)cc2)s1", "T"),
    ("Cn1ccnc1SCC(=O)Nc1ccc(C2CCCCC2)cc1 [Compound 3, Hydrochloride]", "T"),
    ("COC(Cn1c(SCC(=O)Nc2ccc(C(C)C)cc2)nnc1-c1ccccc1)OC [Compound 163, reference compound]", "F"),
    ("Cn1cnnc1SCC(=O)Nc1ccc(C(C)(C)C)cc1 [Compound 164, reference compound]", "F"),
    ("O=C(CSc1nc[nH]n1)Nc1ccc(C2CCCCC2)cc1", "F"),
    ("CCC(C)c1ccc(NC(=O)CSc2nnnn2C)cc1 (stereo not drawn) [Compound 171, reference compound]", "T"),
    ("O=C(CSc1nnnn1-c1ccc(O)cc1)Nc1ccc(C2CCCCC2)cc1", "T"),
    ("CCOc1ccc2nc(SCC(=O)Nc3ccc(C4CCCCC4)cc3)sc2c1", "F"),
    ("O=C(CSc1ccccn1)Nc1ccc(C(=O)c2ccccc2)cc1", "T"),
    ("CC(C)c1ccc(NC(=O)CSc2nnc(CSc3cccs3)n2C)cc1 [Compound 153, reference compound]", "F"),
    ("O=C(CSC1=NCCS1)Nc1ccc(C2CCCCC2)cc1", "F"),
    ("Cc1cc(C)nc(SCC(=O)Nc2ccc(C3CCCCC3)cc2)n1", "F"),
    ("O=C(CSCc1cccc(CS)c1)Nc1ccc(C(=O)c2ccccc2)cc1", "F"),
    ("Nc1cccc(SCC(=O)Nc2ccc(C3CCCCC3)cc2)c1", "T"),
    ("O=C(CSc1nc[nH]n1)Nc1ccc(C(=O)c2ccccc2)cc1", "F"),
    ("Cn1ccnc1SCC(=O)Nc1ccc(-c2ccccc2)cc1", "F"),
]

----------
- system.under.test: Human NPY5 Receptor (Homo sapiens, UniProt Q15761)
- procedure.text: Human NPY5 Receptor Binding Assay
- assay.setup: [125I]PYY; read-out: hNPY5 IC50
# binning rule on IC50: low = under 400 nM, middle = from 400 nM up to 3000 nM, high = 3000 nM and over

# compound, label
measured = [
    ("Cn1ccnc1SCC(=O)Nc1ccc(Cl)cc1 [Compound 139, reference compound]", "high"),
    ("COc1ccc2[nH]c(SCC(=O)Nc3ccc(C4CCCCC4)cc3)nc2c1", "middle"),
    ("CC(=O)Nc1ccc(SCC(=O)Nc2ccc(C(=O)c3ccccc3)cc2)cc1", "middle"),
    ("Nc1n[nH]c(SCC(=O)Nc2ccc(C(=O)c3ccccc3)cc2)n1", "high"),
    ("O=C(CSCCO)Nc1ccc(C2CCCCC2)cc1", "low"),
    ("COC(=O)c1cnc(SCC(=O)Nc2ccc(C(=O)c3ccccc3)cc2)n1C", "middle"),
    ("CC(C)n1c(SCC(=O)Nc2ccc(Cl)cc2)nc2cc(C(F)(F)F)ccc21 [Compound 180, reference compound]", "high"),
    ("O=C(CSc1ccc(O)cc1)Nc1ccc(C(=O)c2ccccc2)cc1", "middle"),
    ("Cc1cc(C)nc(SCC(=O)Nc2ccc(C(=O)c3ccccc3)cc2)n1", "high"),
    ("Nc1ccccc1SCC(=O)Nc1ccc(C2CCCCC2)cc1", "low"),
    ("O=C(CSc1nc2ccccc2o1)Nc1ccc(C2CCCCC2)cc1", "high"),
    ("O=C(CSc1nc(-c2ccccc2)c(-c2ccccc2)[nH]1)Nc1ccc(C2CCCCC2)cc1", "high"),
    ("O=C(CSc1nc2cc([N+](=O)[O-])ccc2[nH]1)Nc1ccc(C2CCCCC2)cc1", "low"),
    ("Cc1cc(-c2nnc(SCC(=O)Nc3ccccc3)n2C)no1 [Compound 150, reference compound]", "high"),
    ("O=C(CSc1ncc[nH]1)Nc1ccc(C2CCCCC2)cc1", "low"),
]
